Give measured pEC50 for each item. Keep answers brief.
Target: Human GPR120 short form (Homo sapiens)
Construct: expressed in transfected cells
Assay: Human GPR120 calcium flux assay, Procedure Calcium B (4200 cells/well)
Type: cell-based
Answers are plain numbers, as −log10 of the molar value.

Answered examples (3):
> print(dat)
                                   molecule                                     tgt  readout.value
1  O=C(O)CCc1cc(Br)c(OCC2=C(c3ccc(Cl)cc3)CCC2)c(Br)c1C(F)(F)F [Compound 101]  Human GPR120 short form (Homo sapiens)           5.91
2  CCOc1ccc(C2=C(COc3ccc(CCC(=O)O)c(C)c3C)CCCC2)cc1 [Compound 461]  Human GPR120 short form (Homo sapiens)           5.87
3  Cc1c(CCC(=O)O)ccc(OCC2=C(c3ccncc3)CCCC2)c1C [Compound 465]  Human GPR120 short form (Homo sapiens)           5.84

Turning now to a further record.
## Task Give its pEC50 value. Item: CCOc1ccc(C2=C(COc3ccc(CCC(=O)O)c(C)c3C)CCC2)cn1 [Compound 219]
## Result 5.95

----------
Target: long form of human GPR120 (Homo sapiens, UniProt Q5NUL3)
Construct: host or cells: PathHunter CHO-K1 GPR120 β-Arrestin Cell Line
Sequence (Q5NUL3 1-377 isoform Q5NUL3-1): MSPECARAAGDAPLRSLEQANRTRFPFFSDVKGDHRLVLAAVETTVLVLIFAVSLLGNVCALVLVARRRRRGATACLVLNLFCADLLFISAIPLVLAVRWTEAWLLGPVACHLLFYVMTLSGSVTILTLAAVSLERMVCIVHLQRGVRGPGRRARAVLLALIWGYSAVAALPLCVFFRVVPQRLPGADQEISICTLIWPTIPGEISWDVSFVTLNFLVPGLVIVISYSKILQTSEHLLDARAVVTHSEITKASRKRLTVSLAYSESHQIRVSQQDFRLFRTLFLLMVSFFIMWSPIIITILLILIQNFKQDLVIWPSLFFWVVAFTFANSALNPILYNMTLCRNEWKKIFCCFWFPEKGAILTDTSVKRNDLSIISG
Sequence (P32121 whole entry partner): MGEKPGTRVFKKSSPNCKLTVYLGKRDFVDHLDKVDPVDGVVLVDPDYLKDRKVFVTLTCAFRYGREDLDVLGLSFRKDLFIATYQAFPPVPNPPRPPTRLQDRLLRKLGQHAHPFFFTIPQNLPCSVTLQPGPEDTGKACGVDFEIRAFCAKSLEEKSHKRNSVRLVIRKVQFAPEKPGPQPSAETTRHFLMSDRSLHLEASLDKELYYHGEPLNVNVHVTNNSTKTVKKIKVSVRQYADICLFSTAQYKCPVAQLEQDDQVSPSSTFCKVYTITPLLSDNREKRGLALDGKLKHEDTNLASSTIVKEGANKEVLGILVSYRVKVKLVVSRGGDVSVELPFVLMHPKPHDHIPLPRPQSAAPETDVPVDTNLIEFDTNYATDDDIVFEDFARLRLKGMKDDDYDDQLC
Assay: Human GPR120 DiscoveRx PathHunter Beta-Arrestin assay, Procedure β-arrestin A
Format: cell-based
MEASUREMENT_KIND: EC50 (nM)
Numbers only, in nM.

Look over these answered cases.
> print(dat)
                                   compound  readout.value
1  Cc1cc(CCC(=O)O)ccc1OCC1=C(c2cccs2)CC(F)(F)C1            303
2  Cc1c(CCC(=O)O)cc(Br)c(OCC2=C(c3ccc(Cl)cc3)CCC2)c1Br           1940
3  Cc1c(CCC(=O)O)ccc(OCC2=C(c3ccccc3)CCC(F)(F)C2)c1C            161

Record EC50 per entry; entries follow.
1. O=C(O)CCc1ccc(OCC2=C(c3ccc(Cl)cc3)CCC2)cc1C(F)(F)F
2. Cc1ccc(C2=C(COc3ccc(CCC(=O)O)c(C)c3C)CCC2)cc1F
3. Cc1ccc(C2=C(COc3ccc(CCC(=O)O)c(C)c3C)CC(F)(F)CC2)s1
4. CCc1cc(OCC2=C(c3ccc(Cl)cc3)CCC2)ccc1CCC(=O)O
5. O=C(O)CCc1ccc(OCC2=C(c3ccc(F)cc3)CC(F)(F)C2)c(Cl)c1
6. Cc1c(CCC(=O)O)ccc(OCC2=C(c3cncs3)CCC(F)(F)C2)c1C
7. Cc1c(CCC(=O)O)ccc(OCC2=C(c3ccc(F)cc3)CC(F)C2)c1C (centres unmarked)
8. O=C(O)CCc1cc(F)c(OCC2=C(c3ccco3)CCC(F)(F)C2)c(F)c1

## Result
491
73
176
680
56
1800
168
519

// each listed compound needs a value for EC50
1. N#CC1CC(COc2c(F)cc(CCC(=O)O)cc2F)=C(c2ccc(Cl)cc2)C1 (centres unmarked)
2. Cc1cc(CCC(=O)O)ccc1OCC1=C(c2cncs2)CC(F)(F)C1
3. [2H]C(C(=O)O)C([2H])c1ccc(OCC2=C(c3ccc(Cl)cc3)CCC2)c(C)c1 (centres unmarked)

## Result
1: 1440; 2: 1050; 3: 35

----------
Target: human GPR40 (Homo sapiens)
Sequence (O14842 whole entry): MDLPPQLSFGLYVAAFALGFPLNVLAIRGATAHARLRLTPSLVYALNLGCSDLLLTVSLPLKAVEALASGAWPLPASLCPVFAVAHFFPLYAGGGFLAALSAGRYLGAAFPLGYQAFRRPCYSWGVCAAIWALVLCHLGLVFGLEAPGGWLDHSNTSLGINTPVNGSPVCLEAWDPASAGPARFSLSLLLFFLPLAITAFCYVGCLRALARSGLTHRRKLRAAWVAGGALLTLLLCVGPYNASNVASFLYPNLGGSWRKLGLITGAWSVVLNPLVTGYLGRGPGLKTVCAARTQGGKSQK
Assay: GPR40 calcium flux assay, human GPR40
Details: HEK293 cells stably expressing GPR40; table does not say human or rat
pEC50: −log10 of the molar value.
Quick rule: pEC50 of at least 6 means T, below that means F.

> print(dat)
                                   compound  cat
1  O=C(O)CCc1ccc(OCC2=C(C3CCCC3)CCCCC2)cc1C(F)(F)F [Compound 612]    T
2  COc1ccc(C2=C(COc3ccc(CCC(=O)O)c(C)c3C)CCC2)cc1 [Compound 21]    F
3  Cc1cc(OCC2=C(c3ccccc3)CCC2)c(F)cc1CCC(=O)O [Compound 277]    F
4  Cc1c(CCC(=O)O)ccc(OCC2=C(c3cccc(Cl)c3)CCCC2)c1C [Compound 509]    F
5  O=C(O)CCc1ccc(OCC2=C(C3CCCC3)CCCC2)cc1C(F)(F)F [Compound 603]    T

Attention now turns to another entry.
## Task I'd appreciate it if you could say whether CCc1ccc(C2=C(COc3ccc(CCC(=O)O)c(Cl)c3)CCC2)cc1 [Compound 293] has pEC50 at least equal to 6.
## Result F

----------
Biological target: human GPR40 (Homo sapiens)
Construct: expressed in transfected cells
Experiment: GPR40 calcium flux assay, human GPR40
Format: cell-based
Conditions: HEK293 cells stably expressing GPR40; table does not say human or rat
pEC50: −log10 of the molar value.
Please provide measured pEC50 for the entries that follow.

> print(dat)
                                   molecule  readout.value
1  COc1cc(C2=C(COc3ccc(CCC(=O)O)c(C)c3C)CCC2)ccc1C [Compound 113]         < 5.30

I would be grateful if you could provide pEC50 for each of the following entries.
1. CCCc1ccc(C2=C(COc3ccc(CCC(=O)O)c(C)c3C)CCCC2)cc1 [Compound 463]
2. Cc1cc(CCC(=O)O)cc(F)c1OCC1=C(c2ccc(F)cc2)CCC1 [Compound 227]

## Result
< 5.30
< 5.30

For every item in the list below, what is its measured pEC50?
1. Cc1ccc(C2=C(COc3ccc(CCC(=O)O)c(C)c3C)CCC2)cn1 [Compound 85]
2. Cc1c(CCC(=O)O)ccc(OCC2=C(c3ccncc3)CCCC2)c1C [Compound 465]
3. Cc1ccc(C2=C(COc3ccc(CCC(=O)O)c(F)c3F)CCC2)cc1C [Compound 83]
4. Cc1ccc(C2=C(COc3ccc(CCC(=O)O)c(F)c3F)CCC2)cc1 [Compound 94]
5. Cc1cc(OCC2=C(c3ccc(Cl)cc3)CCC2)cc(C)c1CCC(=O)O [Compound 119]

## Result
["< 5.30", "< 5.30", "< 5.30", "< 5.30", "< 5.30"]

Dear colleague, could you please provide pEC50 for the molecules listed below?
1. Cc1c(CCC(=O)O)ccc(OCC2=C(c3ccc(Cl)nc3)CCC2)c1C [Compound 158]
2. O=C(O)CCc1ccc(OCC2=C(c3ccc(Cl)cc3)CCC2O)c(F)c1F (stereo not drawn) [Compound 45]
3. CCCc1ccc(C2=C(COc3ccc(CCC(=O)O)c(C)c3C)CCC2)cc1 [Compound 140]
4. Cc1c(CCC(=O)O)ccc(OCC2=C(c3ccccc3)CCC2)c1C [Compound 23]

## Result
1. < 5.30
2. < 5.30
3. < 5.30
4. < 5.30

I would be grateful if you could provide pEC50 for each of the following entries.
1. O=C(O)CCc1ccc(OCC2=C(c3ccccc3Cl)CCC2)cc1C(F)(F)F [Compound 313]
2. Cc1cc(CCC(=O)O)ccc1OCC1=C(c2ccc(F)c(F)c2)CCC(F)(F)C1 [Compound 532]
3. CC1CCC(c2ccc(Cl)cc2)=C1COc1ccc(CCC(=O)O)c(Cl)c1 (stereo not drawn) [Compound 337]

## Result
[6.72, "< 5.30", 6.28]

----------
Biological target: Human GPR120 short form (Homo sapiens, UniProt Q5NUL3)
Construct: expressed in transfected cells
Sequence (Q5NUL3 whole entry): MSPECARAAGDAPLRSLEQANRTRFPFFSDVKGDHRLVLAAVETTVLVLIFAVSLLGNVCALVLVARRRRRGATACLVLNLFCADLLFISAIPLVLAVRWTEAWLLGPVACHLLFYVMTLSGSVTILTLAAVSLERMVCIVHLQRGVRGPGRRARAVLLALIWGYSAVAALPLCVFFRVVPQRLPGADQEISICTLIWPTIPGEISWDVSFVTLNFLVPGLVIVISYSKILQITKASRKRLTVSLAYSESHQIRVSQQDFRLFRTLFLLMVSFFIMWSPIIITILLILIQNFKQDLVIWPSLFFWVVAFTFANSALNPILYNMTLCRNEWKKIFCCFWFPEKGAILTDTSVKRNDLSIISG
Assay: Human GPR120 calcium flux assay, Procedure Calcium B (4200 cells/well)
Type: cell-based
MEASUREMENT_KIND: log10 EC50 (log10 of the value in µM)
# values: log10(EC50), units µM

> print(dat)
                               smiles.entry  readout.value
1      O=C(O)CCc1ccc(OCC2=C(C3CCC3)CCC2)cc1          -0.23
2  Cc1ccc(C2=C(COc3ccc(CCC(=O)O)c(Cl)c3)CCC2)c(F)c1          -0.67
3  O=C(O)CCc1ccc(OCC2=C(c3ccc(C(F)(F)F)cc3)CCC2)cc1C(F)(F)F           0.19
4  O=C(O)CCc1ccc(OCC2=C(c3ccc(Cl)cc3)CCC2)c(F)c1          -1.62
5  Cc1ccccc1C1=C(COc2ccc(CCC(=O)O)c(C)c2C)CCC1          -0.39

# batch size: 2; output log10 EC50 per entry
1. Cc1ccc(C2=C(COc3ccc(CCC(=O)O)c(C)c3C)CCCC2)cn1
2. COc1ccc(C2=C(COc3ccc(CCC(=O)O)c(C(F)(F)F)c3)CCC2)cc1

## Result
-0.20
0.18

----------
Molecular target: human GPR40 (Homo sapiens)
Assay: GPR40 calcium flux assay, human GPR40
Conditions: HEK293 cells stably expressing GPR40; table does not say human or rat
pEC50: −log10 of the molar value.
MEASUREMENT_KIND: pEC50

> print(dat)
                               smiles.entry  readout.value
1  COc1ncc(C2=C(COc3ccc(CCC(=O)O)c(C)c3C)CCC2)cc1F         < 5.30
2  O=C(O)CCc1cc(F)c(OCC2=C(c3ccc(Cl)cc3)CCCC2)c(F)c1         < 5.00
3  O=C(O)CCc1ccc(OCC2=C(c3ccc(Cl)cc3)CCC2)c(I)c1         < 5.30
4  Cc1c(CCC(=O)O)cc(Br)c(OCC2=C(c3ccc(Cl)cc3)CCC2)c1Br         < 5.30
5  Cc1ccc(C2=C(COc3c(F)cc(CCC(=O)O)cc3F)CCC2)cc1C         < 5.30

Shifting focus to the molecule that follows.
## Task Param item = Cc1c(CCC(=O)O)ccc(OCC2=C(c3ccc(F)cc3)CCC2)c1C ; retrieve measured pEC50.
## Result < 5.30
